Biological target: COP9 signalosome complex subunit 5 (Homo sapiens)
Sequence (Q92905 whole entry, one chain of several): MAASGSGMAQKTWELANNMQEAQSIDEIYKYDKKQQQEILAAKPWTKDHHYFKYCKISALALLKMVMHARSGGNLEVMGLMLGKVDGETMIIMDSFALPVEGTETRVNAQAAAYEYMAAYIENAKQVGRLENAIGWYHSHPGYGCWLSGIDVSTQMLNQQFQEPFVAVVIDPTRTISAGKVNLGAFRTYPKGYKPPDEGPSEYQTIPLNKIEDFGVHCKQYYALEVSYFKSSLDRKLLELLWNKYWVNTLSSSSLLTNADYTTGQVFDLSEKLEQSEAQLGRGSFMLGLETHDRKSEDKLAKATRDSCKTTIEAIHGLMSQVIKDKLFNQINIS
Assay: Inhibition of CSN5 (unknown origin) using SCFskp2-Nedd8OG as substrate after 1 hr by fluorescence polarization assay
Measured IC50 by item

// below: answered molecules
                               smiles_entry   reading
0  O=C(NCc1nccs1)c1cnc2c(SSc3cccc4cc(C(=O)NCc5nccs5)cnc34)cccc2c1     24 µM
1  O=C(NCCN1CCOCC1)c1cnc2c(SSc3cccc4cc(C(=O)NCCN5CCOCC5)cnc34)cccc2c1  > 100 µM
2  COC(=O)CNC(=O)c1cnc2c(SSc3cccc4cc(C(=O)NCC(=O)OC)cnc34)cccc2c1  > 100 µM
3         CSc1cccc2cc(C(=O)NCCc3nccs3)cnc12  > 100 µM
4  O=C(NCc1ccccn1)c1cnc2c(SSc3cccc4cc(C(=O)NCc5ccccn5)cnc34)cccc2c1   > 50 µM
5  O=C(NCc1ccco1)c1cnc2c(SSc3cccc4cc(C(=O)NCc5ccco5)cnc34)cccc2c1  < 0.5 µM

Inquiry: For the molecule Sc1cccc2cccnc12 , report IC50.
Reply text: 10.3 µM

Inquiry: For the molecule Cc1ccnc2c(S)cccc12 , report IC50.
Reply text: 25.1 µM

Inquiry: For the molecule O=C(CNC(=O)c1cnc2c(SSc3cccc4cc(C(=O)NCC(=O)NCC(=O)OCc5ccccc5)cnc34)cccc2c1)NCC(=O)OCc1ccccc1 , report IC50.
Reply text: > 30 µM

Inquiry: For the molecule O=C(NCc1ccc(C(F)(F)F)cc1)c1cnc2c(SSc3cccc4cc(C(=O)NCc5ccc(C(F)(F)F)cc5)cnc34)cccc2c1 , report IC50.
Reply text: > 100 µM

Inquiry: For the molecule O=C(NCc1cccnc1)c1cnc2c(SSc3cccc4cc(C(=O)NCc5cccnc5)cnc34)cccc2c1 , report IC50.
Reply text: > 100 µM
